# SYSTEM NAME: hKv3.1 (Homo sapiens)
# Construct: expressed in transfected cells
# Sequence (P48547 whole entry): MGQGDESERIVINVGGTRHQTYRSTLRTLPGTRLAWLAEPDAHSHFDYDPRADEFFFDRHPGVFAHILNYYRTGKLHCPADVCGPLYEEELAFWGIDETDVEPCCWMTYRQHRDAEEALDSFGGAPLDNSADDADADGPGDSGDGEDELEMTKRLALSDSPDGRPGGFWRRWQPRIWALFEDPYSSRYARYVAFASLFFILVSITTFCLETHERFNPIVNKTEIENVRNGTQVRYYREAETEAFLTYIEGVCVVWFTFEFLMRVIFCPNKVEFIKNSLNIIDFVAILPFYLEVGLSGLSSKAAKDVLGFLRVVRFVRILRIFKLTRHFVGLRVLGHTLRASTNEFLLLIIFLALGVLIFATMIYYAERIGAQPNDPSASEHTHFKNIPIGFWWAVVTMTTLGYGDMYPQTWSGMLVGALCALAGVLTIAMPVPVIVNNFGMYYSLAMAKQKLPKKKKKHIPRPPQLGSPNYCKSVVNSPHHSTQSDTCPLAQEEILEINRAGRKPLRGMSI
# ASSAY INFO: Automated patch clamp (Patchliner) whole-cell electrophysiology, Kv3.1
# Assay type: cell-based
# CONDITIONS: 10 μM compound; % potentiation of peak current at −10 mV voltage step vs vehicle; CHO-K1 cells stably expressing hKv3.1
MEASUREMENT NAME: Kv3.1 Activity at 10 μM Potentiation (%)

| SMILES REPR | UNITS OF MEASURE | RECORDED NUMBER |
| --- | --- | --- |
| CC[C@@]1(C)NC(=O)N(c2ccnc(Oc3ccc(C)c(C)c3)c2)C1=O | % | 28 |

[P] CC[C@H]1NC(=O)N(c2cccc(Oc3ccc(C#N)cc3C(C)(C)C)n2)C1=O
[Q] CC[C@@]1(C)NC(=O)N(c2ccnc(Oc3ccc(Cl)c(OC)c3)c2)C1=O
stdin: Which shows the larger Kv3.1 Activity at 10 μM Potentiation (%) value: P or Q ? Kindly give the label for the entry you pick.
stdout: Q
